Molecular target: T1, PUF4 RNA-binding domain (Saccharomyces cerevisiae, UniProt P25339 537-888)
T1 sequence: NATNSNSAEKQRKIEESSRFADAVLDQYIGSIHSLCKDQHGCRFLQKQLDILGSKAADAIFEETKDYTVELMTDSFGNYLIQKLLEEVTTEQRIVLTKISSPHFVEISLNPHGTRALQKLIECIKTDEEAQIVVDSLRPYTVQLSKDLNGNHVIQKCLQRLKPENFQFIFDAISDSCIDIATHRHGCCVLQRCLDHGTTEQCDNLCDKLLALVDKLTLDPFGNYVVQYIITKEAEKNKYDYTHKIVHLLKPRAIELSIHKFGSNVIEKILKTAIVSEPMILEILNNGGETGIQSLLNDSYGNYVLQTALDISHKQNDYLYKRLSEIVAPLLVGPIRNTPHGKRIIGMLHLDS
Assay: Mg; RNA-MaP; 20 mM Na-HEPES pH 7.4, 30 mM KOAc, 0.75 mM MgCl2, 0.1% Tween-20, 5% glycerol, 0.1 mg/mL BSA, 2 mM DTT; 25 C; 0.0125-409.6 nM protein
Conditions: tags: N-His6-TEV cleaved; C-SNAP kept, Cy3B-labelled; label: tethered on chip by stalled RNA polymerase
Value kind: Kd (nM)
Lab book: enter the figure in nM, no units written.

Query string: Record request: Kd value, item Ib_S2_P3E.1_K3.1_C3.1_H3.1_A3.1_[T5C]_[A6T]_F3.1_T3.1 (ssRNA) RNA: UUUGAUUAAUAUGAUAUCGUUCUUUCUUGUACUUAUUCUUUCUCGAUAUCAUAUUAAUCUUU
Result string: 14.8

Query string: Record request: Kd value, item Id_ii_S2_P4E.3_K4.2_C4.2_[C-2T]_[T-1C]_H4.2_A4.1_F4.1_T4.2_[G10A]_[T11C] (ssRNA) RNA: UUUGAUUAAUAUGAUAUCGUUCUUUCUUCUAUAUAUUAACUUCUUUCUCGAUAUCAUAUUAAUCUUU
Result string: 8.95

Query string: Record request: Kd value, item Ie_S2_P5E.1_K5.1_C5.1_H5.1_A5.1_F5.1_[+9CCTCT]_T5.1 (ssRNA) RNA: UUUGAUUAAUAUGAUAUCGUUCUUUCUUGUAUUAUUCCUCUAUUCUUUCUCGAUAUCAUAUUAAUCUUU
Result string: 7.72
